I'd be grateful if you could share measured Activity for these entries.
TARGET: Glutamate receptor ionotropic, kainate (Rattus norvegicus) (UniProt P22756+Q01812+P42260+P42264+Q63273)
PROTOCOL TEXT: Antagonist activity against rat KA receptor assessed by inhibition of kainate-induced membrane current at 100 uM
Type: functional
Parameters: scale not given: the % may be the effect or the level left
Numbers only, in %.

MOL: N[C@@H](C[C@@]1(C(=O)O)Cc2ccccc2O1)C(=O)O
Activity, %: 100

MOL: N[C@@H](C[C@]1(C(=O)O)Cc2ccccc2O1)C(=O)O
Activity, %: 55

MOL: Cc1ccc2c(c1)C[C@](C[C@H](N)C(=O)O)(C(=O)O)O2
Activity, %: 72

# context switch: different compound, same Activity
Quick one: Activity for Cc1cccc2c1O[C@@](C[C@H](N)C(=O)O)(C(=O)O)C2 ?
95
